# tested-system: furin, P09958;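 also: purified furin at 1:10 enzyme:substrate in 50 mM HEPES pH 7.5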
# Sequence (P09958 whole entry): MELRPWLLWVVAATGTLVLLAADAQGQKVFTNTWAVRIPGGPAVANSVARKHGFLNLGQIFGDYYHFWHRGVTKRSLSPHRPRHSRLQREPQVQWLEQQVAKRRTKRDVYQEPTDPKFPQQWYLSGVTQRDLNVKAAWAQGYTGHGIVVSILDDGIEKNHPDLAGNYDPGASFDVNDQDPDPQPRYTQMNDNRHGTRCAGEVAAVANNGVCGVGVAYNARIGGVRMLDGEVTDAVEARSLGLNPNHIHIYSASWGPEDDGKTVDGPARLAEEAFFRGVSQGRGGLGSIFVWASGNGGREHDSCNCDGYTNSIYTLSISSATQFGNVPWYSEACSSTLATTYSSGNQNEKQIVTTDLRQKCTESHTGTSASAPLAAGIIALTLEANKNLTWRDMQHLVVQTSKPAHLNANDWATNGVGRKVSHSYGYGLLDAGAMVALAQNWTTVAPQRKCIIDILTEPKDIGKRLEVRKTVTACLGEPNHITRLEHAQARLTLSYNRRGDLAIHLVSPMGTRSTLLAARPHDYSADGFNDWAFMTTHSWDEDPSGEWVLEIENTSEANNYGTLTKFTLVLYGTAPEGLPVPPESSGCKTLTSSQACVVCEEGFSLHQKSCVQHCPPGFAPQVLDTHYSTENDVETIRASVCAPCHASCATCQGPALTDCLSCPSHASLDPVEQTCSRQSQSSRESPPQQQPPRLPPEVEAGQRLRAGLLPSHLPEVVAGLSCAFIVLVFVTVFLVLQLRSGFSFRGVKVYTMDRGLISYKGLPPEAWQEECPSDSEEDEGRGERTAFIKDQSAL
# test: furin cleavage Z-score vs untreated control; higher = more cleavage, active = 3.5 or more, inactive = 1 or less, 8 variable residues between constant flanks
# condition-details: 15 min
The list shows a part of the results. No count for the full screen is at hand.
Entry flag: condition met if furin cleavage Z-score reaches 6; condition not met if it does not.

Worked examples follow.
chain-sequence | label-value
CARDKRKQRQAGNASASA [FS-2205] | condition not met
CARSKRALENAGNASASA [FS-2523] | condition met
CAYRGRCRKSAGNASASA [FS-923] | condition not met
CAEHVTSTWVAGNASASA [HC2175] | condition not met
CARSKRGTEDAGNASASA [FS-3084] | condition met

Given the entry CARDKRKLGAAGNASASA [FS-1691] , answer whether its furin cleavage Z-score meets or surpasses 6.
condition not met

Given the entry CAYRGRHRRFAGNASASA [FS-152] , answer whether its furin cleavage Z-score meets or surpasses 6.
condition met
